Measured Activity of individual entries
Assay: Deoxyribose degradation activity was measured as hydroxyl radical formation; further: unit not given here

CN(O)C(=O)Cc1ccc(CC(=O)C2c3cccc(O)c3C(=O)c3c(O)cccc32)cc1	0.51
COC(=O)c1ccc(CC(=O)C2c3cccc(O)c3C(=O)c3c(O)cccc32)cc1	< 0.3

// Activity value for CCOc1ccc(CC(=O)C2c3cccc(O)c3C(=O)c3c(O)cccc32)cc1 : < 0.3

// Activity value for O=C1c2c(O)cccc2C(C(=O)Cc2ccccc2Nc2c(Cl)cccc2Cl)c2cccc(O)c21 : 0.45

// Activity value for COc1ccc(CC(=O)C2c3cccc(O)c3C(=O)c3c(O)cccc32)cc1OC : 0.86

// Activity value for Nc1ccc(CC(=O)C2c3cccc(O)c3C(=O)c3c(O)cccc32)cc1 : 1.43

// Activity value for O=C1c2c(O)cccc2C(C(=O)Cc2ccc3c(c2)OCO3)c2cccc(O)c21 : < 0.3
